- System: Calf thymus DNA
- Procedure Details: Binding affinity to calf thymus DNA assessed as change in melting temperature at compound to calf thymus DNA polynucleotide ratio of 0.5 by spectrophotometric analysis
- Type: nucleic-acid assay
- Setup Conditions: Bos taurus
Metric: ΔTm

> print(dat)
                                smiles.repr   result
1  CC(C)NC(=N)c1ccc2[nH]c(-c3ccc(Cn4cc(COc5ccc(OCc6cn(Cc7ccc(-c8nc9cc(C(=N)NC(C)C)ccc9[nH]8)o7)nn6)cc5)nn4)o3)nc2c1.Cl.Cl  12.2 °C
2  Clc1ccc2[nH]c(-c3ccc(Cn4cc(COCc5cn(Cc6ccc(-c7nc8cc(Cl)ccc8[nH]7)o6)nn5)nn4)o3)nc2c1   2.6 °C
3  Cl.Cl.c1cc2[nH]c(-c3ccc(Cn4cc(CCCc5cn(Cc6ccc(-c7nc8cc(C9=NCCN9)ccc8[nH]7)o6)nn5)nn4)o3)nc2cc1C1=NCCN1  19.1 °C
4  Cl.Cl.c1cc2[nH]c(-c3ccc(Cn4cc(COCc5cn(Cc6ccc(-c7nc8cc(C9=NCCN9)ccc8[nH]7)o6)nn5)nn4)o3)nc2cc1C1=NCCN1  12.5 °C
5  Cl.Cl.N=C(N)c1ccc2[nH]c(-c3ccc(Cn4cc(COc5ccc(OCc6cn(Cc7ccc(-c8nc9cc(C(=N)N)ccc9[nH]8)o7)nn6)cc5)nn4)o3)nc2c1  12.3 °C
6  CC(C)NC(=N)c1ccc2[nH]c(-c3ccc(Cn4cc(COCc5cn(Cc6ccc(-c7nc8cc(C(=N)NC(C)C)ccc8[nH]7)o6)nn5)nn4)o3)nc2c1  11.1 °C
